- Target Desc: hTLR9 (Homo sapiens, UniProt Q9NR96)
- Sequence (Q9NR96 26-1032): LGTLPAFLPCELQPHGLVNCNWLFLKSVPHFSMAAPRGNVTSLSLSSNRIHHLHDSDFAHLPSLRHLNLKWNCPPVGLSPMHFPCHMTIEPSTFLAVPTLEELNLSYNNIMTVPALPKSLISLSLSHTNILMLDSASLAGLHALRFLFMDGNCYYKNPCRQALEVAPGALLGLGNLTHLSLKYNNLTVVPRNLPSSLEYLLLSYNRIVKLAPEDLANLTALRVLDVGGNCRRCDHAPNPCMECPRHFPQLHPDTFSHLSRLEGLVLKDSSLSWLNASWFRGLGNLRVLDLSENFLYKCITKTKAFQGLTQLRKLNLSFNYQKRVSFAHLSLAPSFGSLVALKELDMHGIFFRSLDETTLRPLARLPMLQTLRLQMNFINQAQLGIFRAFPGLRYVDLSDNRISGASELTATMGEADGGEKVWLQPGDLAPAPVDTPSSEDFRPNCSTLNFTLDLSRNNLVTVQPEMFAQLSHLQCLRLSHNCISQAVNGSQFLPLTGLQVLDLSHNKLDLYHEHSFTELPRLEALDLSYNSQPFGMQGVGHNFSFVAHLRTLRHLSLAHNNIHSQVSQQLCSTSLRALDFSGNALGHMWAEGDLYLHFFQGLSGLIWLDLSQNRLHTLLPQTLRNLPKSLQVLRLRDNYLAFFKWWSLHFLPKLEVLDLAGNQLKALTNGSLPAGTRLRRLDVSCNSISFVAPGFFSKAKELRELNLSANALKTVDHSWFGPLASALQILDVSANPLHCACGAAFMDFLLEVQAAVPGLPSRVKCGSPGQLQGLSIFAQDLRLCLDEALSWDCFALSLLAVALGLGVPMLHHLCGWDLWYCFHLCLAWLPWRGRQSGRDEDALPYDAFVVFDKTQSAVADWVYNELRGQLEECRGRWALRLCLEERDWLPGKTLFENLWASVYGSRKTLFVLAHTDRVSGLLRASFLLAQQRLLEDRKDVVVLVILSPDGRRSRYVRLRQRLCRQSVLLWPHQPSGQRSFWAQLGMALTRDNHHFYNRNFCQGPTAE
- Test Method Notes: HEK293-Blue-hTLR-9 cells assay (SEAP reporter, ODN2006 stimulation)
- Type: cell-based
- Set-up: host or cells: HEK293 (HEK-Blue)
- Conditions: HEK293-Blue-hTLR9 cells, ODN2006, 20 hrs; read-out: HEK/hTLR9 IC50
- Description: A stable HEK293-Blue-hTLR-9 cell line was purchased from InvivoGen (Cat.#: hkb-htlr9, San Diego, California, USA). These cells were originally designed for studying the stimulation of human TLR9 by monitoring the activation of NF-κB. […] The cell culture supernatant SEAP reporter activity was determined using QUANTI-Blue™ kit (Cat.#: rep-qb 1, Invivogen, San Diego, California, USA) at a wavelength of 640 nm, a detection medium that turns purple or blue in the presence of alkaline phosphatase. […]
pIC50: −log10 of the molar value.
Outcome Measure: pIC50

(P) C[C@@H]1CN(c2ccc(C#N)c3nccnc23)C[C@H](CN2CCN(c3cc4c(cn3)CN[C@@H](C)C4)CC2)O1 (single isomer, unassigned)
(Q) C[C@@H]1CN(c2ccc(C#N)c3ncccc23)C[C@H](CN2CCC(Nc3ccc4c(c3)CNC4)C2)O1 (stereo partly shown)
INPUT: # return whichever of P and Q has the smaller pIC50 Choose, then provide that item's label.
OUTPUT: P
(P: 7.05, Q: 7.47)

(I) C[C@@H]1CN(c2ccc(C#N)n3ncc(F)c23)C[C@H](CN2CCN(c3cnc4c(c3)CNC4)CC2)O1
(II) C[C@@H]1CN(c2ccc(C#N)c3ncccc23)C[C@H](CN2CC3(C2)CN(c2cnc4c(n2)CCNC4)CCO3)O1
(III) C[C@@H]1CN(c2ccc(C#N)c3ncccc23)C[C@H](CN2CCN(c3ncnc4c3CNCC4)CC2)O1
(IV) C[C@@H]1CN(c2ccc(C#N)c3ncccc23)C[C@H](CN2CCN(c3ccc4c(n3)CNC4)CC2)O1
INPUT: Put the items in order so that reported pIC50 rises from first to last. Note for the reader: the ranking is given by listing the labels in the order requested.
OUTPUT: III, I, II, IV

----------
- Target Desc: human TLR8 (Homo sapiens)
- Sequence (Q9NR97 27-1041): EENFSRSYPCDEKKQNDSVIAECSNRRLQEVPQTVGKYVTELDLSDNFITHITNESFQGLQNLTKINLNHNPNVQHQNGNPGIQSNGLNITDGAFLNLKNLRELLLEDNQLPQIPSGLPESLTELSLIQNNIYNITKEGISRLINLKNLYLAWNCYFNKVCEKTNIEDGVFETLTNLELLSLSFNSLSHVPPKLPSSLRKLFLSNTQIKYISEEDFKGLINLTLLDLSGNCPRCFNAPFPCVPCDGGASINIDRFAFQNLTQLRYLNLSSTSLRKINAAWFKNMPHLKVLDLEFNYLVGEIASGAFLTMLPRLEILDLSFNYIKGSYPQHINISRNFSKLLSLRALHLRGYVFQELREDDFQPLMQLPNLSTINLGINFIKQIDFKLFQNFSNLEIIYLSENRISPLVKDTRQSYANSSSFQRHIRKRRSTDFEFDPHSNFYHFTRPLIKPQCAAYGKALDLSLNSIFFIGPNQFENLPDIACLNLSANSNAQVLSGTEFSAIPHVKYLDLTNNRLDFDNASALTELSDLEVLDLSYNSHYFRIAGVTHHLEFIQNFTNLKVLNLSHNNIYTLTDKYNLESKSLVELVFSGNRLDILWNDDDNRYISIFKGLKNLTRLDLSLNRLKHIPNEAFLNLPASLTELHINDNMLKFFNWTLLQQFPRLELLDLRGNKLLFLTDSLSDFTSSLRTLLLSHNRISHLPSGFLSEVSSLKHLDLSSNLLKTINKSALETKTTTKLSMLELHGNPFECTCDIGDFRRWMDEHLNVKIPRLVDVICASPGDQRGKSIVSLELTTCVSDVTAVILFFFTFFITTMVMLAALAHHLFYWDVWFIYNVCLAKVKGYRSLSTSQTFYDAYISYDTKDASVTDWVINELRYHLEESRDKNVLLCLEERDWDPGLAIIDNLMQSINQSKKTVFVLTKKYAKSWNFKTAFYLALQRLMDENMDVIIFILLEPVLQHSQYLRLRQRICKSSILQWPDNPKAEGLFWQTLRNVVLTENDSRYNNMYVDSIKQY
- Test Method Notes: HEK293-Blue-hTLR-8 cells assay (SEAP reporter, R848 stimulation)
- Conditions: HEK293-Blue-hTLR8 cells, R848, 20 hrs; read-out: HEK/hTLR8 IC50
pIC50: −log10 of the molar value.
Outcome Measure: pIC50

Worked cases, answers included:
C[C@@H]1CN(c2ccc(C#N)c3ncccc23)C[C@H](CN2CCN(c3cnc4c(c3)CN[C@@H]4C)CC2)O1 (single isomer, unassigned) [Example 68]; 7.80
C[C@@H]1CN(c2ccc(C#N)c3ncccc23)C[C@H](CN2CCN(c3cnc4c(c3)CCNC4)CC2)O1 [Example 23]; 7.96
C[C@@H]1CN(c2ccc(C#N)c3ncccc23)C[C@H](CN2C[C@H]3CN(c4ccc5c(n4)CCNC5)CC[C@@H]32)O1 (single isomer, unassigned) [Example 54]; 7.66
C[C@@H]1Cc2cc(N3CCN(C[C@H]4CN(c5ccc(C#N)c6nccnc56)C[C@@H](C)O4)CC3)ncc2CN1 (single isomer, unassigned) [Example 83]; 8.70
C[C@@H]1CN(c2ccc(C#N)c3nccnc23)C[C@H](CN2CCN(c3ccc4c(n3)CN[C@@H]4C)CC2)O1 (single isomer, unassigned) [Example 79]; 8.70
C[C@@H]1CN(c2ccc(C#N)c3ncccc23)C[C@H](CN2CC3[C@H](C2)OCCN3c2ccc3c(n2)CCNC3)O1 (stereo in doubt) [Example 53]; 7.68
C[C@@H]1CN(c2ccc(C#N)c3ncccc23)C[C@H](CN2CCN(c3cc4c(cn3)CNC4)CC2)O1 [Example 18]; 8.05
C[C@@H]1CN(c2ccc(C#N)c3ncccc23)C[C@H](CN2CCN(c3ccc4c(n3)CCNC4)CC2)O1 [Example 14]; 8.40

(A) C[C@@H]1CN(c2ccc(C#N)c3ncccc23)C[C@H](CN2CCN(c3ccc4c(n3)CCN(C)C4)CC2)O1 [Example 34]
(B) Cc1nc2c(nc1N1CCN(C[C@H]3CN(c4ccc(C#N)c5ncccc45)C[C@@H](C)O3)CC1)CCNC2 [Example 60]
(C) C[C@@H]1CN(c2ccc(C#N)c3nccnc23)C[C@H](CN2CCN(c3cc4c(cn3)C[C@H](C)NC4)CC2)O1 (single isomer, unassigned) [Example 81]
(D) C[C@@H]1CN(c2ccc(C#N)c3ncccc23)C[C@H](CN2CCN(c3ccc4c(c3)CNC4)[C@@H](CO)C2)O1 [Example 4]
INPUT: Descending sort on pIC50 required. Form field (ranking): labels in requested order.
OUTPUT: C, A, B, D
